System: BT-549
Experiment: normalised viability (% of control), CellTiter-Blue; higher = more viable cells (about 100 = DMSO control)
Settings: 100 nM; incubation time: 72 h
Reported normalised viability values follow for various molecules
Be sure to follow the number with its unit.

Example molecules with recorded normalised viability:
{"compound string": "O=C(O)C1(C(=O)O)CCC1.[NH2-].[NH2-].[Pt+2]", "assayed system": "BT-549", "normalised viability": "101%"}
{"compound string": "CCCCC(=O)OCC(=O)[C@]1(O)Cc2c(O)c3c(c(O)c2[C@@H](O[C@H]2C[C@H](NC(=O)C(F)(F)F)[C@H](O)[C@H](C)O2)C1)C(=O)c1c(OC)cccc1C3=O", "assayed system": "BT-549", "normalised viability": "85.2%"}
{"compound string": "Cc1ccc(-c2cc(C(F)(F)F)nn2-c2ccc(S(N)(=O)=O)cc2)cc1", "assayed system": "BT-549", "normalised viability": "108%"}
{"compound string": "NCCCNCCSP(=O)(O)O", "assayed system": "BT-549", "normalised viability": "103%"}
{"compound string": "C[C@H]1C[C@@H]2[C@H]([C@@H](O)C[C@@]3(C)[C@H]2CC[C@]3(O)C(=O)CO)[C@@]2(C)C=CC(=O)C=C12", "assayed system": "BT-549", "normalised viability": "111%"}

Let us move to another entry and its normalised viability.
Ask: Check the records and state normalised viability for COc1cc2nccc(Oc3ccc(NC(=O)Nc4cc(C)on4)c(Cl)c3)c2cc1OC
Result: 90.4%
